- system_tested: Orexin/Hypocretin receptor type 1 (Homo sapiens)
- assay_procedure: Antagonist activity at human OX1 receptor expressed in CHO cells assessed as inhibition of receptor-mediated calcium response by FLIPR
- Type: functional, cell-based
reported_endpoint: pKb

>>> print(df.to_string())
                         molecule_smiles  endpoint_value
0        Cn1ccc2cc(NC(=O)Nc3ccncc3)ccc21             < 5
1          O=C(Nc1ccccc1)Nc1ccnc2ccccc12           < 6.1
2  Cn1ccc2cc(NC(=O)Nc3cccc4ccccc34)ccc21           < 6.3

Data origin: ChEMBL document CHEMBL1140924
